Tested on: cheeks of healthy human males
Test: Human pore-shrinking effect (replica of cheek pores, three-dimensional laser scanning microscope)
Format: in vivo
Settings: sample 3 mass %; twice a day for one month; pore size rating (1-13) after minus before application; control 0.3
observable: Replica assessment value (average of n = 5)
Just the number, please.

Summary for this molecule, CNCCC(=O)O [N-methyl-β-alanine] : Replica assessment value (average of n = 5) is −1.0

# Replica assessment value (average of n = 5) of CN(CCC(=O)O)C1CCCCC1 [N-cyclohexyl-N-methyl-β-alanine] = −0.8

Entry O=C(O)CCN1CCCCC1 [3-(1′-piperidine)-propionate, 3-(1′-piperidine)-propionic acid] ; Replica assessment value (average of n = 5) = −1.2

====

Tested on: hairless mouse (HR-1)
Assay: Parakeratosis-inhibiting effect test (oleic acid applied to back of hairless mouse; visual rough skin evaluation and parakeratosis value)
Assay type: in vivo
Settings: sample 3 mass %; rough skin score, control = 2.0, no skin roughness = 0.0; 3 days application after 10 mass % oleic acid
observable: Visual evaluation (average of four animals)
Reply: number alone, nothing else.

Visual evaluation (average of four animals) in this record for N=C(N)NCCC(=O)O [3-guanidinopropionic acid, reference compound] : 2.1

Entry O=C(O)CCNC1CCCCC1 , Visual evaluation (average of four animals) reported as 1.1

For reference, reported Visual evaluation (average of four animals) for Cl.NCCC(N)=O [β-alanine amide hydrochloride salt] stands at 1.3

The measured Visual evaluation (average of four animals) associated with CC(=O)NCCC(=O)O [N-acetyl-β-alanine, reference compound] reads 1.8

Value of Visual evaluation (average of four animals) reported for the compound O=C(O)CCN1CCCCC1 [3-(1′-piperidine)-propionate, 3-(1′-piperidine)-propionic acid] is 1.4

For this compound ( CNCCC(=O)O ), measured Visual evaluation (average of four animals) is 1.1

The compound O=C(O)CCNS(=O)(=O)c1ccccc1 showed Visual evaluation (average of four animals) equal to 1.1

Lab note: CN(CCC(=O)O)C1CCCCC1 gave Visual evaluation (average of four animals) of 1.4

COc1cc(C(=O)NCCC(=O)O)cc(OC)c1OC yielded Visual evaluation (average of four animals) of 1.1

Record summary for O=C(O)CCNc1ccccn1 : reported Visual evaluation (average of four animals) = 1.4

So, NC(=O)NCCC(=O)O [3-ureidopropionic acid, reference compound] ? Its Visual evaluation (average of four animals) was 2.0

Form field Visual evaluation (average of four animals), entry O=C(O)CCNCc1ccccc1 : 1.2

Sample O=C(O)CCNCC1CCCCC1 ; Visual evaluation (average of four animals) observed: 1.1
